Parameter composite z-score: see the listing below.
- assayExplanation: compounds binding Alexa647 anti-His antibody – biochemical, small-molecule microarray, 635 nm fluorescence, artefact control for SMM control protein annotation, primary screen (AID 1128);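 further: score merges feature fluorescence with signal-to-noise for each printed compound spot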
- conditionDescription: higher = more signal
Lab note: record just the number, no unit beside it.

molecule	composite z-score
C=CCN1C(=O)[C@]2(O[C@H](CCO)[C@@H]([Si](C)(C)c3ccc(OC)cc3)[C@@H]2C)c2cc(N(C=O)c3ccccc3)ccc21	0.896
COc1ccc([Si](C)(C)[C@@H]2[C@@H](CC(=O)N3CCC[C@H]3CO)O[C@]3(C(=O)N(Cc4cccc(I)c4)c4ccccc43)[C@H]2C)cc1	2.04
CC(C)CNC(=O)[C@@]1(Cc2ccccc2I)c2ccccc2C(=O)N(Cc2ccccc2C(F)(F)F)[C@H]1c1ccc(CO)cc1	0.657
Cc1ccc(C2C3C(=O)CC4C(=O)N(c5ccccc5)C(=O)C4C3CN2S(=O)(=O)c2ccc(C)cc2)cc1 (centres undefined)	1.16
C=CC[C@]1(C(N)=O)COC(c2ccc(OCCCO)cc2)=N1	1.07
C=CC[C@@]1(C(=O)N2CCCCC2)N=C(c2ccc(OCCCO)cc2)O[C@@H]1c1ccccc1N=[N+]=[N-]	2.24
[N-]=[N+]=Nc1ccccc1C[C@@]1(C(=O)N2CCCCC2)N=C(c2ccc(OCCCO)cc2)O[C@@H]1c1ccccc1	1.63
[N-]=[N+]=Nc1ccccc1C[C@]1(C(=O)NCC(O)CO)N=C(c2ccc(OCCCO)cc2)O[C@H]1c1ccccc1 (some centres undefined)	1.91

# context switch: different molecule, same composite z-score
Fill in the blank: the reported composite z-score of CCOc1cc(C(O)C2C=CC3C(=O)N(c4ccccc4)C(=O)C3N2Nc2ccc(C(C)C)cc2)ccc1O (centres undefined) is ____.
1.72
